Origin of the recorded values: patent US20220281848A1

system: barnyardgrass (Echinochloa crus-galli, ECHCG); assay: Test A pre-emergence, barnyardgrass; type: in vivo; settings: Pre-Emergence at 15.625 g/ha; after 13 d
Friendly reminder: damage to plant (100=total damage; 0=no damage) ECHCG below 60 is MET, at or above is NOT MET.

{"MOLECULE": "CN1CC(c2nn(C)c(Cl)c2Br)C(C(=O)Nc2ccc(F)cc2F)C1=O (racemic)", "CLASS_LABEL": "MET"}
{"MOLECULE": "CCn1nc([C@H]2CN(C)C(=O)[C@@H]2C(=O)Nc2ccc(F)nc2F)c2cccc(F)c21", "CLASS_LABEL": "MET"}
{"MOLECULE": "CCn1nc(C2CN(C)C(=O)C2C(=O)Nc2cccc(F)c2F)c2cccc(F)c21 (racemic)", "CLASS_LABEL": "MET"}
{"MOLECULE": "CN1CC(c2cc(Cl)n(C)n2)C(C(=O)Nc2cccc(F)c2F)C1=O (racemic)", "CLASS_LABEL": "NOT MET"}
{"MOLECULE": "CN1CC(c2cc(C(F)(F)F)n(C)n2)C(C(=O)Nc2cccc(F)c2F)C1=O (stereo not shown)", "CLASS_LABEL": "MET"}
{"MOLECULE": "CN1CC(c2cc(C(F)(F)F)n(C)n2)C(C(=O)Nc2ccccc2F)C1=O (racemic)", "CLASS_LABEL": "NOT MET"}

====

Readings of damage to plant (100=total damage to plant; 0=no damage to plant), ABUTH for the listed molecules
tested on: plants; experiment: Test D post-emergence, other plants of Tables D2 and D4; assay type: in vivo; settings: post-emergence, ABUTH, rate 500, evaluated after 15 d
MEASURED_QUANTITY: damage to plant (100=total damage to plant; 0=no damage to plant), ABUTH

{"MOLECULE": "COc1c(F)cccc1NC(=O)C1C(=O)N(C)CC1c1cc(C(F)(F)F)n(C)n1 (racemic)", "STUDY_TARGET": "plants", "REPORTED_RESULT": 30}
{"MOLECULE": "CN1CC(c2cc(C(F)(F)F)n(C)n2)C(C(=O)Nc2ccc(F)cc2F)C1=O (racemic)", "STUDY_TARGET": "plants", "REPORTED_RESULT": 20}
{"MOLECULE": "CN1CC(c2cc(C(F)(F)F)n(C)n2)C(C(=O)Nc2cccc(F)c2C(F)(F)F)C1=O (racemic)", "STUDY_TARGET": "plants", "REPORTED_RESULT": 20}
{"MOLECULE": "CN1CC(c2cc(C(F)(F)F)n(C)n2)C(C(=O)Nc2cccc(F)n2)C1=O (racemic)", "STUDY_TARGET": "plants", "REPORTED_RESULT": 10}

====

test system: plants; experiment: Test D pre-emergence, other plants of Tables D1 and D3; type: in vivo; details: ELEIN; preemergent; rate 250; 20 DAA
MEASURED_QUANTITY: damage to plant (100=total damage to plant; 0=no damage to plant), ELEIN

{"MOLECULE": "CN1C[C@H](c2nn(C)c3c(F)cccc23)[C@@H](C(=O)Nc2cccc(F)c2F)C1=O", "REPORTED_RESULT": 0}
{"MOLECULE": "CCn1nc([C@@H]2CN(C)C(=O)[C@H]2C(=O)Nc2cccc(F)c2F)c2cccc(F)c21", "REPORTED_RESULT": 0}
{"MOLECULE": "CN1CC(c2cc(C(F)(F)F)n(C)n2)C(C(=O)Nc2ccc(F)nc2F)C1=O (racemic)", "REPORTED_RESULT": 0}
{"MOLECULE": "CN1CC(c2cc(C(F)(F)F)n(C)n2)C(C(=O)Nc2ccccc2F)C1=O (racemic)", "REPORTED_RESULT": 0}
